Test system: thyroid hormone receptor (endogenous TRα and TRβ)
assay.protocol: GH3-TRE-Antag primary qHTS, luciferase reporter, antagonist mode with 1 nM T3 (TOX21_TR_LUC_GH3_Antagonist, aeid 804)
Type: cell-based, rat
test.conditions: Table S8
Where a name gives a salt, the structure may show the parent alone.
Would you kindly list resp_max GH3-TRE-Antag for each of these molecules?
Answers are plain numbers.

Check out these entries, answers already filled in.
CCN(CC)C(=O)N[C@@H]1C=C2c3cccc4[nH]cc(c34)C[C@@H]2N(C)C1 [(-)-(5S,8R)-Lisuride]	34.7
CCc1cc(OC)c(C[C@@H](C)N)cc1OC	85.7
CC[C@]12CCCN3CCc4c(n(c5ccccc45)C(=O)C1)[C@@H]32 [(-)-Eburnamonine]	88.8

Let me check: CC[C@H](O)C(C[C@H](C)N(C)C)(c1ccccc1)c1ccccc1 [(-)-alpha-Methadol hydrochloride] , system thyroid hormone receptor (endogenous TRα and TRβ), measured resp_max GH3-TRE-Antag is 76.3
